Data provenance is ChEMBL document CHEMBL1156119.

Tested on: SMB
Experiment: Antiprion activity against Scrapie prion protein-mediated scrapie in mouse SMB cells assessed as remaining PrP-Sc level at 1 uM after 5 days by Bradford assay relative to control
Assay type: cell-based
Reported Activity is given for each of the following molecules.
Metric Name: Activity

Line Notation	Reported
O=C(Nc1ccc(O)cc1)C(=O)c1c[nH]c2ccccc12	17.8%
COc1ccc(NC(=O)C(=O)c2cn(C)c3ccccc23)cc1	11.6%
O=C(Nc1ccccc1)C(=O)c1c[nH]c2ccccc12	19.5%

---

# Lookup of reported Remaining PrP-Sc level keyed by entry
Tested on: SMB
Test: Antiprion activity against Scrapie prion protein-mediated scrapie in mouse SMB cells assessed as remaining PrP-Sc level at 10 uM after 5 days by Bradford assay relative to control
Assay type: cell-based

Line Notation	Unit String	Remaining PrP-Sc level
Cn1cc(C(=O)C(=O)N2CCCCC2)c2ccccc21	%	131
Cn1cc(C(=O)C(=O)NCc2cccnc2)c2ccccc21	%	117
O=C(Nc1cccc(-c2cnco2)c1)C(=O)c1c[nH]c2ccccc12	%	16.8
Cn1cc(C(=O)C(=O)Nc2cccc(Oc3ccccc3)c2)c2ccccc21	%	169
Cc1cccc(NC(=O)C(=O)c2c[nH]c3ccccc23)c1	%	21.7
COc1cc(NC(=O)C(=O)c2cn(C)c3ccccc23)ncn1	%	86.4
O=C(NCc1ccc(Oc2ccccc2)cc1)C(=O)c1c[nH]c2ccccc12	%	17.5
